Experiment: viability loss with induced miR-34 in A549 – imaging, A549 dox-inducible miR-34, nuclei and caspase counts, primary screen (AID 1347080); note: test concentration not given here
Details: A549 miR-34 inducible, Hoechst nuclei count, 48 h; measured here: total cells with miR-34 induction; stronger effect = lower value
readout_label: cell count
# output: bare number, no unit

Take a look at these entries with their results.
# molecule, cell count
records = [
    ("O=C(C=Cc1ccc(O)c(O)c1)NCCc1ccc(O)cc1", 8240),
    ("CC(C)(C)CC(C)(C)c1ccc(OCOCCOCCO)c(Cc2cc(C(C)(C)CC(C)(C)C)cc(Cc3cc(C(C)(C)CC(C)(C)C)ccc3OCOCCOCCO)c2OCOCCOCCO)c1", 7920),
]

API: the following record is the query input.
Q: Using the record for "Cc1cn([C@H]2C[C@@H](N=[N+]=[N-])[C@@H](CO)O2)c(=O)[nH]c1=O" , report its cell count.
Ans: 8200
